Provenance of the data: patent US11046662B2

Target: hERG channel (Homo sapiens (Human))
Sequence (Q12809 whole entry): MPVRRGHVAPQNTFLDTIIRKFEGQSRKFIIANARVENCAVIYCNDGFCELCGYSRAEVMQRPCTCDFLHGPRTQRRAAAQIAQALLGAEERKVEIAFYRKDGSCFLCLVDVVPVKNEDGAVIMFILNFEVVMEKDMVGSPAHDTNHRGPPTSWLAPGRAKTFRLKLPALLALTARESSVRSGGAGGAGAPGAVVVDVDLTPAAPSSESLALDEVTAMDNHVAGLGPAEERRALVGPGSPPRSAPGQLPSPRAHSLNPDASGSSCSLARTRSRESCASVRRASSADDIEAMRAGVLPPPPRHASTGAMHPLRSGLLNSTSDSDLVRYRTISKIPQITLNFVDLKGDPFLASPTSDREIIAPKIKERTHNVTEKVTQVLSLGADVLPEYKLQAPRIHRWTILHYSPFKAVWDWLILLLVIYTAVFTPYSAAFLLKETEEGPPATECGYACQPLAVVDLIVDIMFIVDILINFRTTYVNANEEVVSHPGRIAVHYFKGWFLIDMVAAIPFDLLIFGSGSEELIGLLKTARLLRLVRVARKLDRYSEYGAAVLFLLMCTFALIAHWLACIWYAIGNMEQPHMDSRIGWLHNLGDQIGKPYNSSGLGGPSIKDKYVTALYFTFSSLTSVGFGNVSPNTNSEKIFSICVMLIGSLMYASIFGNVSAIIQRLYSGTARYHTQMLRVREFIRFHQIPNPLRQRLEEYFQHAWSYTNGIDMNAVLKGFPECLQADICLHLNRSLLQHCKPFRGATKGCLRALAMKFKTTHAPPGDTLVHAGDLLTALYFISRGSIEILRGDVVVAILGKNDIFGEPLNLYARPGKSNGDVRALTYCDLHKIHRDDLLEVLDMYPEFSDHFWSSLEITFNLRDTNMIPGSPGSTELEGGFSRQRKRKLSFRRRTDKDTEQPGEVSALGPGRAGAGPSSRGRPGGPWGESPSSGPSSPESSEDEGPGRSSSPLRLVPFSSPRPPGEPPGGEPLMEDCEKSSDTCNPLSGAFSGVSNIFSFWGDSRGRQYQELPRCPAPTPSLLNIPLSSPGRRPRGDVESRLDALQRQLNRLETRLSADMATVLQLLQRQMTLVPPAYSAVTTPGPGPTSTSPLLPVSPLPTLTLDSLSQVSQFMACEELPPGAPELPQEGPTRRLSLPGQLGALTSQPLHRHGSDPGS
Measure: IC50

{"columns": ["Compound string", "Recorded measurement"],
 "data": [
  ["CCC(=O)c1sc(-c2cccc(F)c2)nc1[O-].[Na+]", "> 1000 µM"]
]}

* * *

Assay: Plasma Protein Binding, rat
Assay type: in vitro ADME
Measure: fraction unbound

{"columns": ["Compound string", "Measure", "Recorded measurement"],
 "data": [
  ["CCC(=O)c1sc(-c2cccc(F)c2)nc1[O-].[Na+]", "fraction unbound", 0.025]
]}

* * *

Target: CYP2D6 (Homo sapiens (Human), UniProt P10635)
Sequence (P10635 whole entry): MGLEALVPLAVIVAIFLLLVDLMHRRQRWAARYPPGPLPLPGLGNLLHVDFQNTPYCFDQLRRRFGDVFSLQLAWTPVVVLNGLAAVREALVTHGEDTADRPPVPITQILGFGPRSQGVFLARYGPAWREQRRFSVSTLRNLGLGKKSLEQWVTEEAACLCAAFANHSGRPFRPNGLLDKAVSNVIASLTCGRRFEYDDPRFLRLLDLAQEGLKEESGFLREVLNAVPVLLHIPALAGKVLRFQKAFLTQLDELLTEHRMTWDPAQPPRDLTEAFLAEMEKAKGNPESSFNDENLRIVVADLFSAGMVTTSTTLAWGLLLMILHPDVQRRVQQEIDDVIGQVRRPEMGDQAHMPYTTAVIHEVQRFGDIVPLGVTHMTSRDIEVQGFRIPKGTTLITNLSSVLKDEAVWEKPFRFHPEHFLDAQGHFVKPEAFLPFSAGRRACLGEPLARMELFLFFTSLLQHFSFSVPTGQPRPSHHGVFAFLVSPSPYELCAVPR
pIC50: −log10 of the molar value.

{"columns": ["Compound string", "pIC50"],
 "data": [
  ["CCC(=O)c1sc(-c2cccc(F)c2)nc1[O-].[Na+]", "< 4.52"]
]}

* * *

Test: Pharmacokinetic profile, intravenous and oral administration
Type: in vivo
Settings: plasma; oral administration, PO 10 mg/kg
Protocol: The ADME properties and the pharmacokinetic profile of compound 2 were evaluated.
Measure: Cmax (ng/mL)

{"columns": ["Compound", "Measure", "Value units", "Recorded measurement"],
 "data": [
  ["CCC(=O)c1sc(-c2cccc(F)c2)nc1[O-].[Na+] [Compound 2]", "Cmax", "ng/mL", 10300]
]}

* * *

Test: Pharmacokinetic profile, intravenous and oral administration
Type: in vivo
Conditions: plasma; oral administration, PO 10 mg/kg

{"columns": ["Compound string", "Tmax [min]"],
 "data": [
  ["CCC(=O)c1sc(-c2cccc(F)c2)nc1[O-].[Na+]", 15]
]}
